# procedure_text: qHTS of pediatric cancer cell lines to identify multiple opportunities for drug repurposing: Primary screen for A673 cells (AID 1347092); further: nearly all actives have a fitted effect of over 45% in size; further: potency means the concentration at half of the fitted maximal effect
# experimental_context: A673 Ewing sarcoma viability, CellTiter-Glo ATP luminescence, 48 h; series mostly up to 46 µM
Results filed as inconclusive are left out. Calls of active or inactive are those of the source. The call rests on the fitted dose curve; in most records, active means well fitted cell-killing curve with a large enough effect; inconclusive means small, poorly fitted or top-dose-only effect; inactive means no such curve, though single readings can be large or run the other way.
measurement_name: Potency

Guide cases for Potency, answers given:
>>> readout_value("CN(C)C(=O)[C@H](O)[C@H](Cc1ccccc1)NC(=O)c1cc2cc(Cl)ccc2[nH]1")
"5900 nM (active)"
>>> readout_value("Cc1nc(-c2ccc(OCC(C)C)c(C#N)c2)sc1C(=O)O")
"inactive"
>>> readout_value("CCCCC(CC)COC(=O)C(C#N)=C(c1ccccc1)c1ccccc1 (stereo not drawn)")
"inactive"
>>> readout_value("CC1=C(C(=O)O)N2C(=O)[C@@H](NC(=O)[C@H](N)C3=CCC=CC3)[C@H]2SC1")
"inactive"
>>> readout_value("O=C1CCc2ccc(OCCCCN3CCN(c4cccc(Cl)c4Cl)CC3)cc2N1")
"inactive"

Task item: For the compound "Oc1ccc(OCc2ccccc2)cc1" , give its measured Potency value.
Reply: inactive

Where do these numbers come from? They come from PubChem BioAssay (NCATS).
